System: Lewis lung carcinoma cell line
PROTOCOL: Anticancer activity against Lewis lung carcinoma cells measured after 3 days by MTT assay
Assay type: functional, cell-based
CONDITIONS_USED: Mus musculus, 72 h
REPORTED_METRIC: IC50 (µM)
Reply numerically in µM, unit not repeated.

Lab book: IC50 of "COc1cc2c(cc1OC)-c1cc3ccc(OC)c(OCCN)c3c[n+]1CC2.[Cl-]" noted as 122

----------
Test system: 3T3-L1
PROTOCOL: Antiproliferative activity against mouse 3T3-L1 cells at 10 uM incubated for 4 days
Type: toxicity, cell-based
CONDITIONS_USED: 3t3-l1, 96 h, time 4 day
REPORTED_METRIC: Activity

- SUBSTANCE_SMILES: "COc1cc2c(cc1OC)-c1cc3ccc(OC)c(OCCNC(=O)OCc4ccc(SSC[C@H](N)C(=O)NCCCCCC(=O)N[C@@H](CC(N)=O)C(=O)N[C@@H](Cc5ccc(O)cc5)C(=O)N[C@@H](CO)C(=O)N[C@@H](CCCCN)C(=O)N5CCC[C@H]5C(=O)N[C@H](C(=O)N[C@@H](CC(=O)O)C(=O)N[C@@H](CCCNC(=N)N)C(=O)N[C@@H](CCC(N)=O)C(=O)N[C@@H](Cc5ccc(O)cc5)C(=O)N[C@@H](Cc5cnc[nH]5)C(=O)N[C@@H](Cc5ccccc5)C(=O)O)[C@@H](C)O)cc4)c3c[n+]1CC2.[Cl-]"
  REPORTED_METRIC: "Activity"
  TEST_RESULT: "Toxic"
- SUBSTANCE_SMILES: "COc1cc2c(cc1OC)-c1cc3ccc(OC)c(OCCN)c3c[n+]1CC2.[Cl-]"
  REPORTED_METRIC: "Activity"
  TEST_RESULT: "Non-toxic"
- SUBSTANCE_SMILES: "C[C@@H](O)[C@H](NC(=O)[C@@H]1CCCN1C(=O)[C@H](CCCCN)NC(=O)[C@H](CO)NC(=O)[C@H](Cc1ccc(O)cc1)NC(=O)[C@H](CC(N)=O)NC(=O)CCCCCNC(=O)[C@@H](N)CS)C(=O)N[C@@H](CC(=O)O)C(=O)N[C@@H](CCCNC(=N)N)C(=O)N[C@@H](CCC(N)=O)C(=O)N[C@@H](Cc1ccc(O)cc1)C(=O)N[C@@H](Cc1cnc[nH]1)C(=O)N[C@@H](Cc1ccccc1)C(=O)O"
  REPORTED_METRIC: "Activity"
  TEST_RESULT: "Non-toxic"
- SUBSTANCE_SMILES: "COc1cc2c(cc1OC)-c1cc3ccc(OC)c(OCCNC(=O)OCCSSC[C@H](N)C(=O)NCCCCCC(=O)N[C@@H](CC(N)=O)C(=O)N[C@@H](Cc4ccc(O)cc4)C(=O)N[C@@H](CO)C(=O)N[C@@H](CCCCN)C(=O)N4CCC[C@H]4C(=O)N[C@H](C(=O)N[C@@H](CC(=O)O)C(=O)N[C@@H](CCCNC(=N)N)C(=O)N[C@@H](CCC(N)=O)C(=O)N[C@@H](Cc4ccc(O)cc4)C(=O)N[C@@H](Cc4cnc[nH]4)C(=O)N[C@@H](Cc4ccccc4)C(=O)O)[C@@H](C)O)c3c[n+]1CC2.[Cl-]"
  REPORTED_METRIC: "Activity"
  TEST_RESULT: "Non-toxic"

Cited source for all entries: ChEMBL document CHEMBL6092191
